Below: a set of entries, each annotated with reported MIC.
System: Candida albicans
Test: Antimicrobial activity against Candida albicans ATCC 90028 after 18 to 24 hrs by microbroth dilution method
Type: functional
Provide the reading as a plain figure in µg/mL.

Examples with their reported MIC follow.
smiles_data=CCn1cc(C(=O)O)c(=O)c2cc(F)c(N3CCN(c4ccccc4)CC3)c(F)c21 outcome_measure=MIC quantity_unit=µg/mL reported=413
smiles_data=CCn1cc(C(=O)O)c(=O)c2cc(F)c(N3CCC(CO)CC3)c(F)c21 outcome_measure=MIC quantity_unit=µg/mL reported=183

Record CCn1cc(C(=O)O)c(=O)c2cc(F)c(N3CCC(Br)CC3)c(F)c21 . Reported MIC: 415

The compound listed as CCn1cc(C(=O)O)c(=O)c2cc(F)c(N3CCNCC3)cc21 has a reported MIC of 312

The recorded MIC for entry CCn1cc(C(=O)O)c(=O)c2cc(F)c(N3CCN(c4cccc(Cl)c4Cl)CC3)c(F)c21 equals 108

Values from ChEMBL document CHEMBL1629487
